target: BTK (Homo sapiens, UniProt Q06187); test: biochemical; conditions: read-out: BTK inhibition (%), 0.75 uM BTK, […] probe 3l, 15 min preincubation
Sequence (Q06187 402-655 limits assumed): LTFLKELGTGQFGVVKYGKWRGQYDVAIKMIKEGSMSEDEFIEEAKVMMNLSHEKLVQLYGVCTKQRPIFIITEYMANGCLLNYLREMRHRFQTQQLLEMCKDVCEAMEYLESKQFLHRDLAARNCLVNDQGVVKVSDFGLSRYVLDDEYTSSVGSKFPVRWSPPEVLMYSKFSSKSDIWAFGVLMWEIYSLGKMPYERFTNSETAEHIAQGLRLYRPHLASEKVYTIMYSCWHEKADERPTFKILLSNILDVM
Param threshold (10%) applies to inhibition at 10 µM; output Y when value >= threshold, N when value < threshold.

Please review the entries below; each comes with its answer.
COC(=O)c1ccc([C@H]2C3Nc4ccccc4C3C[C@H](C(=O)OC)N2C(=O)CCl)cc1 (stereo partly drawn); Y
Cc1c(OCC(F)(F)F)ccnc1C[S+]([O-])c1nc2ccccc2[nH]1 (stereo not drawn); N
O=c1c(-c2ccc(O)cc2)coc2cc(O)cc(O)c12; Y
Cc1nc(C#Cc2ccnc(Cl)c2)c(C)n1-c1ccc(OC(F)(F)F)cc1; N

[in] Is it the case that COCCCOc1cc(C[C@@H](C[C@H](N)[C@@H](O)C[C@H](C(=O)NCC(C)(C)C(N)=O)C(C)C)C(C)C)ccc1OC has inhibition at 10 µM reaching or exceeding 10%?
[out] N

[in] // next record CNCc1ccc(-c2[nH]c3cc(F)cc4c3c2CCNC4=O)cc1
[out] Y
